test.system: Sigma non-opioid intracellular receptor 1 (Cavia porcellus, UniProt Q60492)
Sequence (Q60492 whole entry): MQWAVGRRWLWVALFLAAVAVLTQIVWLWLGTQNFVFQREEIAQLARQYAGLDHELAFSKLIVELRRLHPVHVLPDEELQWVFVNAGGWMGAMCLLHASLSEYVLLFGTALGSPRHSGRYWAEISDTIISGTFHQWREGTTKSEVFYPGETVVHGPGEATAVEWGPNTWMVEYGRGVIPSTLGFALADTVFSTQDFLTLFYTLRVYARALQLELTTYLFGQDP
protocol: Displacement of [3H]-(+)-pnetazocin from sigma1 receptor in guinea pig brain membrane incubated for 150 mins by liquid scintillation counting method
Classification field. Basis: Ki. Definitions: interval 1: < 0.02 µM; interval 2: ≥ 0.02 µM and < 0.4 µM; interval 3: ≥ 0.4 µM

CCC(=O)N(CCc1ccccc1)CCN1CCC(Cc2ccccc2)CC1 : interval 2
CCC(=O)N(CCN1CCC(Cc2ccccc2)CC1)c1ncccc1F : interval 3
CCC(=O)N(CCN1CCC(Cc2ccccc2)CC1)C(C)c1ccccc1 (stereo not given) : interval 1
CCC(=O)N(CCN1CCC(Cc2ccccc2)CC1)c1ccc(C)cc1 : interval 1
CCC(=O)N(CCN1CCC(Cc2ccc(F)cc2)CC1)c1ccc(C)cc1 : interval 1
CCC(=O)N(CCCCN1CCC(Cc2ccccc2)CC1)c1ccc(OC)cc1 : interval 1
CCC(=O)N(CCN1CCC(CCc2ccccc2)CC1)c1ccc(OC)cc1 : interval 2
CCC(=O)N(CCN1CCC(Cc2ccccc2)CC1)c1cccc(C(F)(F)F)n1 : interval 3

Shift focus to the following entry.
Form field 'band' for CCC(=O)N(CCCCCN1CCC(Cc2ccccc2)CC1)c1ccc(OC)cc1
interval 2

----------
The reader will find reported Ki values listed item by item below.
test.system: Mu-type opioid receptor (Cavia porcellus, UniProt P97266)
Sequence (P97266 whole entry): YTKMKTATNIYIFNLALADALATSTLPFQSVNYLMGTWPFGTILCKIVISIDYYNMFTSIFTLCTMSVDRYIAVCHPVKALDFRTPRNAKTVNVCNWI
Kindly format the answer as number then unit.

C[C@H]1[C@H]2Cc3ccc(O)cc3[C@@]1(C)CCN2CCc1ccccc1 : 55 nM

Turning to the following compound.
Query: Ki; subject: C[C@@H]1[C@@H]2Cc3ccc(O)cc3[C@]1(C)CCN2CCc1ccccc1
0.2 nM

Each recorded value in this set is attributed to ChEMBL document CHEMBL4765270.
